# Kd annotations
- assayed system: T1, Cys-MB (Mini-B with a cysteine added to its N-terminus, chip-linked) (human)
- T1 construct: cysteine added to the N-terminus to link the peptide to the thiol Biacore chip; surfactant protein B (SP-B), human, residues 8-25; numbers count on: the mature protein (79 residues); surfactant protein B (SP-B), human, residues 63-78; Immobilised on the SPR chip; also called chipped MB; N-terminal Cys-MB
- T1 chain: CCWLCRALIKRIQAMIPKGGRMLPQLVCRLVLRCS
- assay comment: SPR; Biacore 3000; Cys-MB or Cys-S-MB linked to a thiol chip; MB or S-MB at 1 µg peptide/ml in HBS-EP (10 mM Hepes, pH 7.4, 150 mM NaCl, 3 mM EDTA, 0.005% surfactant P20) flowed over at 50 µl/min, 37°C; constants from curve fitting at the one concentration
- run conditions: both partners purified
Dear colleague, please return just the value in nM, with no unit written.

CWLCRALIKRIQAMIPKGGRMLPQLVCRLVLRCS (surfactant protein B (SP-B), human, residues 8-25 (N-terminal helix region); numbers count on: the mature protein (79 residues); surfactant protein B (SP-B), human, residues 63-78 (C-terminal helix region); Oxidised form with intramolecular disulfides Cys-8 to Cys-40 and Cys-11 to Cys-34 (S-MB numbering); also called MB; source: synthetic peptide (Fmoc solid phase, HPLC-purified, air-oxidised)) [Mini-B] = 183

GET /value?item= FPIPLPYCWLCRALIKRIQAMIPKGGRMLPQLVCRLVLRCS (numbers count on: the mature protein (79 residues); surfactant protein B (SP-B), human, residues 63-78 (C-terminal helix region); the split into the two SP-B stretches follows the stated ranges (1-7 plus 8-25, and 63-78); Oxidised form with intramolecular disulfides Cys-8 to Cys-40 and Cys-11 to Cys-34; also called S-MB; SMB; source: synthetic peptide (Fmoc solid phase, HPLC-purified, …)) [Super Mini-B] &field=Kd returns 52.1
